Hello, the source for this data is PubChem BioAssay AID2060626, in case you need it.

Assignment: determine reported viability, T/C for the given molecules.
# Test system: 168753-222-R-J1-PDC complex spheroid viability
# Protocol details: Anticancer human tumor 168753-222-R-J1-PDC patient-derived bladder carcinoma cell line growth inhibition [CLK]
# Protocol conditions: second compound 3.16 µM; first compound 10 µM; active compounds read low
Kindly answer with a numeric value in %, unit omitted.

Prompt line: What viability, T/C appears in the records for this molecule with 168753-222-R-J1-PDC complex spheroid viability? O=C(c1cc(Cc2n[nH]c(=O)c3ccccc23)ccc1F)N1CCN(C(=O)C2CC2)CC1 + CN1CCN(c2cc(C(=O)Nc3cc4cc(-c5cnn(C)c5)ccc4cn3)ccn2)CC1
Response line: 0.39

Prompt line: Moving on to C#Cc1c(F)ccc2cc(O)cc(-c3ncc4c(N5CC6CCC(C5)N6)nc(OCC56CCCN5CC(F)C6)nc4c3F)c12 (stereo not drawn) + CNC(=O)c1ccc(Nc2nc(OC3CCCC3)c3c(-c4ccc5nc(C)oc5c4)c[nH]c3n2)c(OC)c1
Response line: 16.2

Prompt line: Try this molecule too: CCCS(=O)(=O)Nc1ccc(F)c(C(=O)c2c[nH]c3ncc(-c4ccc(Cl)cc4)cc23)c1F + CN1CCN(c2cc(C(=O)Nc3cc4cc(-c5cnn(C)c5)ccc4cn3)ccn2)CC1
Response line: 1.36

* * *

# Test system: 168753-222-R-J1-PDC complex spheroid viability
# Protocol details: Anticancer human tumor 168753-222-R-J1-PDC cell line growth inhibition [CLK];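 also: luminescence signal used as surrogate for viable cell amount; viability measured after seven days of drug exposure; 100% = DMSO vehicle control wells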
# Protocol conditions: second compound 0.316 µM; first compound 10 µM; active compounds read low
Field 'label' (enum: 1 (yes) / 0 (no)). Set to 1 (yes) when viability, T/C is strictly under 30%; else 0 (no).

Prompt line: Please indicate whether the reported viability, T/C of C#Cc1c(F)ccc2cc(O)cc(-c3ncc4c(N5CC6CCC(C5)N6)nc(OCC56CCCN5CC(F)C6)nc4c3F)c12 (configuration not stated) + CNC(=O)c1ccc(Nc2nc(OC3CCCC3)c3c(-c4ccc5nc(C)oc5c4)c[nH]c3n2)c(OC)c1 is strictly below 30%.
Response line: 1 (yes)

Prompt line: Please answer likewise for C=C(F)C(=O)N1CCN(c2nc(OCC3CCCN3C)nc3c2CCN(c2cccc4cccc(Cl)c24)C3)CC1CC#N (configuration not stated) + CN1CCN(c2cc(C(=O)Nc3cc4cc(-c5cnn(C)c5)ccc4cn3)ccn2)CC1
Response line: 1 (yes)

Prompt line: Next record, please: CC(=O)O[C@H]1C(=O)[C@@]2(C)[C@H]([C@H](OC(=O)c3ccccc3)[C@]3(O)C[C@H](OC(=O)[C@H](O)[C@@H](NC(=O)c4ccccc4)c4ccccc4)C(C)=C1C3(C)C)[C@]1(OC(C)=O)CO[C@@H]1C[C@@H]2O + CNC(=O)c1ccc(Nc2nc(OC3CCCC3)c3c(-c4ccc5nc(C)oc5c4)c[nH]c3n2)c(OC)c1
Response line: 0 (no)

Prompt line: Then this molecule: CC1(C)CCC(CN2CCN(c3ccc(C(=O)NS(=O)(=O)c4ccc(NCC5CCOCC5)c([N+](=O)[O-])c4)c(Oc4cnc5[nH]ccc5c4)c3)CC2)=C(c2ccc(Cl)cc2)C1 + CNC(=O)c1ccc(Nc2nc(OC3CCCC3)c3c(-c4ccc5nc(C)oc5c4)c[nH]c3n2)c(OC)c1
Response line: 1 (yes)

Prompt line: Continue with CC(CO)NC(=O)c1cc(-c2ccc(Cl)cc2)nn(-c2cnn(C)c2)c1=O (configuration not stated) + CN1CCN(c2cc(C(=O)Nc3cc4cc(-c5cnn(C)c5)ccc4cn3)ccn2)CC1
Response line: 1 (yes)

Prompt line: How about this molecule: O=c1[nH]cc(F)c(=O)[nH]1 + CNC(=O)c1ccc(Nc2nc(OC3CCCC3)c3c(-c4ccc5nc(C)oc5c4)c[nH]c3n2)c(OC)c1
Response line: 0 (no)
